# procedure_text: Cytotoxicity against HEK293 cells expressing human AC1 at 30 uM preincubated for 30 mins followed by A23187 stimulation and measured after 1 hr by CellTiter-Glo luminescent cell viability assay relative to control
# Assay type: cell-based
# conditions: HEK293 cells expressing human AC1, read-out: Activity
measured_property: viability at 1 h, 30 µM (%)
Note: unit % is implicit; provide only the numeric part.

>>> observed_value("O=C(Nc1nnc(-c2ccc(F)cc2)o1)c1cccc(F)c1")
104
>>> observed_value("O=C(Nc1nnc(C2CCCCC2)o1)c1ccc(Cl)cc1")
89
>>> observed_value("Cc1ccc(C(=O)Nc2nnc(C3CCCCC3)o2)cc1C")
112
>>> observed_value("Cc1ccc(C(=O)Nc2nnc(C3CCCCC3)o2)cc1C(F)(F)F")
139
>>> observed_value("Cc1ccc(C(=O)Nc2nnc(-c3ccc(F)cc3)o2)cc1")
104

Query Cc1cc(C(=O)Nc2nnc(-c3ccc4c(c3)CCCC4)o2)cc(C(F)(F)F)c1 yields viability at 1 h, 30 µM of 116

// Cc1ccc(C(=O)Nc2nnc(-c3ccc4c(c3)OCCO4)o2)cc1C : viability at 1 h, 30 µM value = 113

Noted for O=C(Nc1nnc(C2CCCCC2)o1)c1ccc(F)cc1 : its viability at 1 h, 30 µM reads 95

Entry COc1ccc(C(=O)Nc2nnc(-c3ccc(F)cc3)o2)cc1 — recorded viability at 1 h, 30 µM = 82

The compound listed as O=C(Nc1nnc(-c2ccc(F)cc2)o1)c1ccc(-c2ccccc2)cc1 has a reported viability at 1 h, 30 µM of 114

What the record says about O=C(Nc1nnc(-c2ccc3c(c2)CCCC3)o1)c1ccc(F)cc1 : viability at 1 h, 30 µM is 110

Reported viability at 1 h, 30 µM for COc1ccc(-c2nnc(NC(=O)c3cc(-c4cccs4)nc4ccccc34)o2)cc1 was 118

// viability at 1 h, 30 µM value for CC(C)Oc1ccc(C(=O)Nc2nnc(-c3ccc4c(c3)OCCO4)o2)cc1 : 160

Sure, the documented viability at 1 h, 30 µM for O=C(Nc1nnc(-c2cccs2)o1)c1ccc(Br)cc1 is 110

viability at 1 h, 30 µM reported for this compound O=C(Nc1nnc(-c2ccc3c(c2)OCCO3)o1)c1ccccc1 : 87

What the record says about CCOc1cccc2cc(-c3nnc(NC(=O)c4ccccc4SC)o3)oc12 : viability at 1 h, 30 µM is 127

Noted for COc1cc(C(=O)Nc2nnc(-c3ccc4c(c3)CCCC4)o2)cc(C(F)(F)F)c1 : its viability at 1 h, 30 µM reads 121

Field viability at 1 h, 30 µM (entry COc1ccc(C(=O)Nc2nnc(C3CCCCC3)o2)cc1 ) reads 82

Cited source for all entries: ChEMBL document CHEMBL4382248
